# Tested on: SW1271 complex spheroids with HUVEC/MSC, growth, % test/control
# measurement protocol: Anticancer human tumor SW1271 cell line growth inhibition [AhR];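 further: spheroids exposed to agents for 7 days before readout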
# stated conditions: second compound 1 µM; first compound 0.0316 µM; active compounds read low
Below is a list of entries, each paired with its recorded viability, T/C value.

{"compound": "Nc1ncn(C2CC(O)C(CO)O2)c(=O)n1 (configuration not stated) + Cc1cncc(-c2nc(NCCc3c[nH]c4ccccc34)c3ncn(C(C)C)c3n2)c1", "viability, T/C": "107%"}
{"compound": "CC1COCCN1c1cc(-c2ccnn2C)c2ccnc(-c3ccn[nH]3)c2n1 (configuration not stated) + CC(CO)NC(=O)c1cc(-c2ccc(Cl)cc2)nn(-c2cnn(C)c2)c1=O", "viability, T/C": "86.7%"}
{"compound": "Nc1ccn(C2OC(CO)C(O)C2(F)F)c(=O)n1 (configuration not stated) + Cc1ccccc1N=Nc1ccc(NC(=O)c2ccnn2C)c(C)c1", "viability, T/C": "41.1%"}
{"compound": "CC(C)c1c(-c2ccccc2)nc2c(C#N)c[nH]n2c1=O + Cc1ccccc1N=Nc1ccc(NC(=O)c2ccnn2C)c(C)c1", "viability, T/C": "90.5%"}
{"compound": "NS(=O)(=O)OCC1CC(n2ccc3c(NC4CCc5ccccc54)ncnc32)CC1O (configuration not stated) + Cc1cncc(-c2nc(NCCc3c[nH]c4ccccc34)c3ncn(C(C)C)c3n2)c1", "viability, T/C": "143%"}
{"compound": "Cn1ncnc1C1c2n[nH]c(=O)c3cc(F)cc(c23)NC1c1ccc(F)cc1 (configuration not stated) + Cc1cncc(-c2nc(NCCc3c[nH]c4ccccc34)c3ncn(C(C)C)c3n2)c1", "viability, T/C": "94.7%"}
{"compound": "Cn1ncnc1C1c2n[nH]c(=O)c3cc(F)cc(c23)NC1c1ccc(F)cc1 (configuration not stated) + Cc1ccccc1N=Nc1ccc(NC(=O)c2ccnn2C)c(C)c1", "viability, T/C": "99.3%"}
{"compound": "COc1cc(Nc2ncc3c(n2)-c2ccc(Cl)cc2C(c2c(F)cccc2OC)=NC3)ccc1C(=O)O + CC(CO)NC(=O)c1cc(-c2ccc(Cl)cc2)nn(-c2cnn(C)c2)c1=O", "viability, T/C": "59.7%"}
{"compound": "CC1COCCN1c1cc(-c2ccnn2C)c2ccnc(-c3ccn[nH]3)c2n1 (configuration not stated) + Cc1cncc(-c2nc(NCCc3c[nH]c4ccccc34)c3ncn(C(C)C)c3n2)c1", "viability, T/C": "75.3%"}
{"compound": "NS(=O)(=O)OCC1CC(n2ccc3c(NC4CCc5ccccc54)ncnc32)CC1O (configuration not stated) + Cc1ccccc1N=Nc1ccc(NC(=O)c2ccnn2C)c(C)c1", "viability, T/C": "157%"}
{"compound": "CC[C@@]1(O)C(=O)OCc2c1cc1n(c2=O)Cc2cc3c(CN(C)C)c(O)ccc3nc2-1 + CC(CO)NC(=O)c1cc(-c2ccc(Cl)cc2)nn(-c2cnn(C)c2)c1=O", "viability, T/C": "57.2%"}
{"compound": "CC1COCCN1c1cc(C2(S(C)(=N)=O)CC2)nc(-c2ccnc3[nH]ccc23)n1 (configuration not stated) + Cc1cncc(-c2nc(NCCc3c[nH]c4ccccc34)c3ncn(C(C)C)c3n2)c1", "viability, T/C": "83.7%"}
{"compound": "CC(C)c1c(-c2ccccc2)nc2c(C#N)c[nH]n2c1=O + CC(CO)NC(=O)c1cc(-c2ccc(Cl)cc2)nn(-c2cnn(C)c2)c1=O", "viability, T/C": "78.7%"}
{"compound": "Nc1ccccc1NC(=O)c1ccc(CNC(=O)OCc2cccnc2)cc1 + CC(CO)NC(=O)c1cc(-c2ccc(Cl)cc2)nn(-c2cnn(C)c2)c1=O", "viability, T/C": "87.7%"}
{"compound": "COc1cc(C2c3cc4c(cc3C(OC3OC5COC(C)OC5C(O)C3O)C3COC(=O)C23)OCO4)cc(OC)c1O (configuration not stated) + Cc1cncc(-c2nc(NCCc3c[nH]c4ccccc34)c3ncn(C(C)C)c3n2)c1", "viability, T/C": "96.2%"}
{"compound": "Nc1ccccc1NC(=O)c1ccc(CNC(=O)OCc2cccnc2)cc1 + Cc1ccccc1N=Nc1ccc(NC(=O)c2ccnn2C)c(C)c1", "viability, T/C": "101%"}
{"compound": "COc1cccc2c1C(=O)c1c(O)c3c(c(O)c1C2=O)CC(O)(C(=O)CO)CC3OC1CC(N)C(O)C(C)O1 (configuration not stated) + Cc1cncc(-c2nc(NCCc3c[nH]c4ccccc34)c3ncn(C(C)C)c3n2)c1", "viability, T/C": "89.5%"}
{"compound": "Nc1ccn(C2OC(CO)C(O)C2(F)F)c(=O)n1 (configuration not stated) + Cc1cncc(-c2nc(NCCc3c[nH]c4ccccc34)c3ncn(C(C)C)c3n2)c1", "viability, T/C": "74.2%"}
{"compound": "Nc1ncn(C2CC(O)C(CO)O2)c(=O)n1 (configuration not stated) + CC(CO)NC(=O)c1cc(-c2ccc(Cl)cc2)nn(-c2cnn(C)c2)c1=O", "viability, T/C": "81.6%"}
{"compound": "O=C(c1cc(Cc2n[nH]c(=O)c3ccccc23)ccc1F)N1CCN(C(=O)C2CC2)CC1 + CC(CO)NC(=O)c1cc(-c2ccc(Cl)cc2)nn(-c2cnn(C)c2)c1=O", "viability, T/C": "79.7%"}
{"compound": "CC1COCCN1c1cc(-c2ccnn2C)c2ccnc(-c3ccn[nH]3)c2n1 (configuration not stated) + Cc1ccccc1N=Nc1ccc(NC(=O)c2ccnn2C)c(C)c1", "viability, T/C": "106%"}
{"compound": "COc1ccc([C@@H](O)c2cc(-c3ncnc4cc(N5CCOCC5)ccc34)c(F)cc2Cl)nn1 + Cc1cncc(-c2nc(NCCc3c[nH]c4ccccc34)c3ncn(C(C)C)c3n2)c1", "viability, T/C": "91.3%"}

* * *

# Tested on: SW1271 complex spheroids with HUVEC/MSC, growth, % test/control
# measurement protocol: Anticancer human tumor SW1271 cell line growth inhibition [AhR];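 further: spheroids exposed to agents for 7 days before readout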
# stated conditions: second compound 0.1 µM; first compound 10 µM; active compounds read low

{"compound": "O=C(c1cc(Cc2n[nH]c(=O)c3ccccc23)ccc1F)N1CCN(C(=O)C2CC2)CC1 + CC(CO)NC(=O)c1cc(-c2ccc(Cl)cc2)nn(-c2cnn(C)c2)c1=O", "unit symbol": "%", "viability, T/C": 78.8}
{"compound": "COc1cc(Nc2ncc3c(n2)-c2ccc(Cl)cc2C(c2c(F)cccc2OC)=NC3)ccc1C(=O)O + Cc1ccccc1N=Nc1ccc(NC(=O)c2ccnn2C)c(C)c1", "unit symbol": "%", "viability, T/C": 50.9}
{"compound": "CC1(C)CCC(CN2CCN(c3ccc(C(=O)NS(=O)(=O)c4ccc(NCC5CCOCC5)c([N+](=O)[O-])c4)c(Oc4cnc5[nH]ccc5c4)c3)CC2)=C(c2ccc(Cl)cc2)C1 + CC(CO)NC(=O)c1cc(-c2ccc(Cl)cc2)nn(-c2cnn(C)c2)c1=O", "unit symbol": "%", "viability, T/C": 71.5}

* * *

# Test system: SW1271 complex spheroids with HUVEC/MSC, growth, % test/control
# measurement protocol: Anticancer human tumor SW1271 cell line growth inhibition [AhR];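 further: spheroids exposed to agents for 7 days before readout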
# stated conditions: second compound 10 µM; first compound 0.0316 µM; active compounds read low
# Description: Multicellular complex tumor spheroid response to aryl hydrocarbon receptor antagonists in combination with a variety of drugs and investigational agents in selected tumor cell lines […] Compounds. […] If the clinical Cmax for an agent had not been determined, the highest concentration tested was 10 microM (Table 1). […]
Below is a list of entries, each paired with its recorded viability, T/C value.

{"compound": "COc1cccc2c1C(=O)c1c(O)c3c(c(O)c1C2=O)CC(O)(C(=O)CO)CC3OC1CC(N)C(O)C(C)O1 (stereo not given) + Cc1ccccc1N=Nc1ccc(NC(=O)c2ccnn2C)c(C)c1", "viability, T/C [%]": 57.6}
{"compound": "COc1cc(C2c3cc4c(cc3C(OC3OC5COC(C)OC5C(O)C3O)C3COC(=O)C23)OCO4)cc(OC)c1O (stereo not given) + CC(CO)NC(=O)c1cc(-c2ccc(Cl)cc2)nn(-c2cnn(C)c2)c1=O", "viability, T/C [%]": 71.1}
{"compound": "CC1(C)CCC(CN2CCN(c3ccc(C(=O)NS(=O)(=O)c4ccc(NCC5CCOCC5)c([N+](=O)[O-])c4)c(Oc4cnc5[nH]ccc5c4)c3)CC2)=C(c2ccc(Cl)cc2)C1 + CC(CO)NC(=O)c1cc(-c2ccc(Cl)cc2)nn(-c2cnn(C)c2)c1=O", "viability, T/C [%]": 70.8}
{"compound": "CC1(C)CCC(CN2CCN(c3ccc(C(=O)NS(=O)(=O)c4ccc(NCC5CCOCC5)c([N+](=O)[O-])c4)c(Oc4cnc5[nH]ccc5c4)c3)CC2)=C(c2ccc(Cl)cc2)C1 + Cc1cncc(-c2nc(NCCc3c[nH]c4ccccc34)c3ncn(C(C)C)c3n2)c1", "viability, T/C [%]": 36.9}
{"compound": "Cn1ncnc1C1c2n[nH]c(=O)c3cc(F)cc(c23)NC1c1ccc(F)cc1 (stereo not given) + Cc1cncc(-c2nc(NCCc3c[nH]c4ccccc34)c3ncn(C(C)C)c3n2)c1", "viability, T/C [%]": 61.3}

Source of measurements: PubChem BioAssay AID1919017
